Every entry's value here was drawn from paper PMC3871636.

# target.entity: CYP3A4 (C377/C468 mutant) (Homo sapiens, UniProt P08684, form not given/S18F)
# Sequence (P08684 13-503 S18F, form open): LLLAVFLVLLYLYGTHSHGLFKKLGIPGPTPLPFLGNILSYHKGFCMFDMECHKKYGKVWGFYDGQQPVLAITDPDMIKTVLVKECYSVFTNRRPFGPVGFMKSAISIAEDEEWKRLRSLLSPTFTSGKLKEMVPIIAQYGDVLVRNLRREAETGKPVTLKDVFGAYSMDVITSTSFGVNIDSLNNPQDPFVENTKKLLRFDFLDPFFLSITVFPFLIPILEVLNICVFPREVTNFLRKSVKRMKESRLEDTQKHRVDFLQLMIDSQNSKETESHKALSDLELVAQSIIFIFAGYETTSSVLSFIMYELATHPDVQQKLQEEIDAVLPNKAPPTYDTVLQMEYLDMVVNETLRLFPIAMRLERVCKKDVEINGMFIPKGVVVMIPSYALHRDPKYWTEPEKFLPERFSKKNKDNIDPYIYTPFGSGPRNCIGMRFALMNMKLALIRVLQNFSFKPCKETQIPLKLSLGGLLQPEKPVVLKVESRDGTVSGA
# assay: Ligand-induced spin shift, absorbance titration
# Assay type: binding
# condition.description: human, purified CYP3A4(C377/C468) mutant protein, pH 7.4
recorded.endpoint: pKd
Answers are plain numbers, as −log10 of the molar value.

Q) Need pKd of C[C@]12CC[C@H]3[C@@H](CCC4=CC(=O)CC[C@@]43C)[C@@H]1CC[C@@H]2O [Testosterone, testosterone] , thanks.
A) 4.29

====

# target.entity: double-labeled CYP3A4 C64/C121-DY/ER (Homo sapiens, UniProt P08684, A121C/C239S/C377S/C468A/C98S/S18F)
# Sequence (P08684 with tags, fused parts or gaps S18F/C98S/A121C/C239S/C377S/C468A limits assumed): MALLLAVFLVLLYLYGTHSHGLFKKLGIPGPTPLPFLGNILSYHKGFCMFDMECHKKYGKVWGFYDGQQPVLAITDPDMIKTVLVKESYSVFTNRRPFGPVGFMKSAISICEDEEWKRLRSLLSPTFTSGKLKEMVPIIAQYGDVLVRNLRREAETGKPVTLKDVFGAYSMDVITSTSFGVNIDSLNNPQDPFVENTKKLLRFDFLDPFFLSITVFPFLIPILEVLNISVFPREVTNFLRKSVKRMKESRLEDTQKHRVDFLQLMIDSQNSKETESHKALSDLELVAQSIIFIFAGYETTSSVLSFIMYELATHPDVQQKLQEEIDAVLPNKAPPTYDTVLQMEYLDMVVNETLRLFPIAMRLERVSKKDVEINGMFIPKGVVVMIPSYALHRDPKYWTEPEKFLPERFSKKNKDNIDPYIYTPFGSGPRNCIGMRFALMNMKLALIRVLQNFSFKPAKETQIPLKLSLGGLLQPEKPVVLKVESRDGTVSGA
# assay: Time-resolved LRET (phosphorescence lifetime measurements)
# condition.description: Table S1; protein (C64/C121)-ER/DY; same ligand concentrations
# Description: All absorbance and fluorescence assays (including the time-resolved fluorescence measurements) were performed at a protein concentration ≤1 µM at 25°C with continuous stirring. Absorbance spectra were recorded with an S2000 rapid scanning CCD spectrometer (Ocean Optics). […] Fluorescence-based ligand binding assays were done under anaerobic conditions. […] Distances were calculated using the equation: [drawing 3] […] R 0 was calculated with the use of PhotoChemCad software. […]
Counter-ions that a name gives are not always drawn.
recorded.endpoint: τav (average phosphorescence lifetime with ligand) (µs)
One number for each entry, in µs.

Worked set:
molecule: C[C@]12CC[C@H]3[C@@H](CCC4=CC(=O)CC[C@@]43C)[C@@H]1CC[C@@H]2O [Testosterone, testosterone]
unit.tag: µs
measurement: 165
//
molecule: CC(C)CCC[C@@H](C)[C@H]1CC[C@H]2[C@@H]3CC=C4C[C@@H](O)CC[C@]4(C)[C@H]3CC[C@]12C [Cholesterol, cholesterol]
unit.tag: µs
measurement: 154
//
molecule: OCCCCc1ccc2ccc3cccc4ccc1c2c34 [1-PB, 1-pyrenebutanol]
unit.tag: µs
measurement: 149
//
molecule: O=c1cc(-c2ccccc2)oc2c1ccc1ccccc12 [ANF, α-naphthoflavone]
unit.tag: µs
measurement: 159

# context switch: different molecule, same τav (average phosphorescence lifetime with ligand)
Q) Need τav (average phosphorescence lifetime with ligand) of CC(C)C[C@H]1C(=O)N2CCC[C@H]2[C@]2(O)O[C@](NC(=O)[C@@H]3C=C4c5cccc6[nH]c(Br)c(c56)C[C@H]4N(C)C3)(C(C)C)C(=O)N12 [Bromocriptine, Bromocriptine mesylate] , thanks.
A) 159

====

# target.entity: double-labeled CYP3A4 C377/C468-DY/ER (Homo sapiens, UniProt P08684, S18F, form not given)
# Sequence (P08684 13-503 S18F, form open): as the sequence (P08684 13-503 S18F, form open) above
# assay: Steady-state LRET titration (delayed emission)
# Format: binding
# condition.description: Table S2; protein C377/C468-ER/DY; same ligand concentrations
Structures can show the parent of a compound that is named as a salt.
Kindly state R (interprobe distance with ligand), steady-state measurements for each of the entries shown.
Numbers only, in Å.

Worked set:
molecule: OCCCCc1ccc2ccc3cccc4ccc1c2c34
unit.tag: Å
measurement: 44.5

molecule: C[C@]12CC[C@H]3[C@@H](CCC4=CC(=O)CC[C@@]43C)[C@@H]1CC[C@@H]2O
unit.tag: Å
measurement: 46.7

molecule: O=c1cc(-c2ccccc2)oc2c1ccc1ccccc12
unit.tag: Å
measurement: 45.2

molecule: CC(C)CCC[C@@H](C)[C@H]1CC[C@H]2[C@@H]3CC=C4C[C@@H](O)CC[C@]4(C)[C@H]3CC[C@]12C
unit.tag: Å
measurement: 45.2

Q) Need R (interprobe distance with ligand), steady-state measurements of CC(C)C[C@H]1C(=O)N2CCC[C@H]2[C@]2(O)O[C@](NC(=O)[C@@H]3C=C4c5cccc6[nH]c(Br)c(c56)C[C@H]4N(C)C3)(C(C)C)C(=O)N12 [Bromocriptine, Bromocriptine mesylate] , thanks.
A) 44.7
